- Assay system: T1, human Siglec-7 expressed on human cells (primary monocytes, dendritic cells, macrophages, NK cells, … (human, UniProt Q9Y286 19-467))
- T1 construct: Endogenous receptor on cells; also called Siglec-7 receptor
- T1 sequence (Q9Y286 19-467): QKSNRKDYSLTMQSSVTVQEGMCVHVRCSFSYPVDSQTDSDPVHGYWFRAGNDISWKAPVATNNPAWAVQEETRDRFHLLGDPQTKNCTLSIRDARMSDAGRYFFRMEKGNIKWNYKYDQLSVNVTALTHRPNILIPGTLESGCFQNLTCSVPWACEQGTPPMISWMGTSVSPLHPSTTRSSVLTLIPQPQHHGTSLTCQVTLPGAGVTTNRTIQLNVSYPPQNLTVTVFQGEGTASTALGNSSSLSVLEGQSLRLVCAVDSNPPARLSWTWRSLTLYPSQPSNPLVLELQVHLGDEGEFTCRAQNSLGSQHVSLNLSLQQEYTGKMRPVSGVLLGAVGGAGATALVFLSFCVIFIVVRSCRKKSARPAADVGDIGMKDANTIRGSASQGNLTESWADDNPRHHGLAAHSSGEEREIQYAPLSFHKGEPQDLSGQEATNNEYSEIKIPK
- Method: FACS, human primary macrophages, 10 ug/ml mAb
Recorded MFI, one value per entry.

Binder	Experimental result
anti-Siglec-7 antibody 1E8 (antibody, V domains shown) VH: QVQLQQSGAELVRPGASVKLSCSASGFNIKGSLLHWIKQRPLQGLEWIGWIDPEDGETRFDPKFQDKAFLTADTSSTTAYLQLSSLTSEDTAIYYCARTEYSNPAWFAYWGQGTLVTVSA VL: DIQMTQFPATLSVTPGDRVSLSCRASQSISDYLHWYQHKSHESPRLLIKYASQSISGIPSRFSGSGSGWDFTLSINSVEPEDVGIYYCQKGLNFPLTFGGGTKLEMK	5450

Task item: Can you look up the measured MFI of anti-Siglec-7 antibody 4D7 (antibody, V domains shown, Variable domains assembled from FR and CDR entries) VH: QVQLQQSGAELVKPGASVKLSCKTSGYTFTNYWINWVKQRPGQGLEWIGNIYSGSSRTNYNEKFKSKATLTVDTSSSTAYMQLSSLTSDDSAVYYCAREGLRAMDYWGQGTSVTVSS VL: NZMTQFQKFMSTSVGDRVSLTCKASQKVGTNVAGFQQKPGHSPKAGIYSASTRHRGVQDRFTARGLGSDFILPITTZQLEDLAEYZCHQGNSVQYTFGGGTKLEIK for me?
Reply: 4260
